Source: PubChem BioAssay (NCI)

Tested on: SNB-75 CNS
method_notes: NCI tumour cell line growth inhibition, 48 h
reported_metric: TGI

> print(dat)
                                   compound  measurement.target    result
1  CCN(/N=C1\CC2C=CCN(C2)C(=O)Cc2c1[nH]c1ccccc21)S(=O)(=O)c1ccc(C)cc1 (stereo not drawn)          SNB-75 CNS  > 100 µM
2  C=C1CC[C@@H]2[C@](C)(COC(=O)CCC(=O)O)CCC[C@@]2(C)[C@@H]1CCC1=CC(=O)OC1          SNB-75 CNS  > 100 µM
3  COc1ccc(-c2c3c(nc4nc(SCC(=O)c5ccc(Br)cc5)nc(N)c24)CCCC3)cc1OC          SNB-75 CNS   28.1 µM
4  Nc1ccc(C2SCC(=O)N2NS(=O)(=O)c2cccc(C(=O)O)c2)cc1 (stereo not drawn)          SNB-75 CNS  > 100 µM
5        c1ccc(/C(=N/Nc2ccccn2)c2cccnn2)cc1          SNB-75 CNS   32.7 µM

Record COC1C(=O)CCC2(CO2)C1(O)C1(C)OC1CC=C(C)C (stereo not drawn) , field TGI: > 100 µM

Record `Cn1c(=O)c(Oc2ccc(F)cc2F)cc2cnc(NCC(C)(C)O)nc21` , field TGI: > 25 µM

Record `CCc1ncc(CO)n1Cc1cccc2ccccc12` , field TGI: > 100 µM

----------
Tested on: UACC-62 melanoma
method_notes: NCI tumour cell line growth inhibition, 48 h
A collection of compounds and their measured TGI

> print(dat)
                                   compound  reported.metric    result
1  O=C(CC(=O)N1N=C(N(c2ccccc2)c2ccccc2)CC1c1ccccc1)Nc1cccc(Cl)c1 (stereo not given)              TGI  > 100 µM
2  CC/C(=C(/c1ccc(OCCN(C)C)cc1)c1ccc(OC(=O)CCCCCCCCC(=O)c2c(C)[nH]c(/C=C3\N=C(c4ccc[nH]4)C=C3OC)c2C)cc1)c1ccccc1              TGI   18.1 µM
3       S=C1NNC2(C(=S)N1)c1ccccc1-c1ccccc12              TGI   > 10 µM
4  c1ccc(CC(Nc2cccnc2)c2ccccc2)cc1 (stereo not given)              TGI   36.9 µM
5  C[C@]12CCc3nn(-c4ccccc4)nc3C1CC[C@@H]1C2CC[C@]2(C)C(=O)CCC12 (stereo not given in full)              TGI  > 100 µM
6  C#CCn1c(=O)ccn(/C(=C/C(=O)OCC)C(=O)OCC)c1=O              TGI   27.8 µM

Record `O=C(Nc1ccc(Cl)cc1)c1cc(S(=O)(=O)N2CCNNC2=O)c(S)cc1Cl` , field TGI: > 100 µM

Record Nc1ccc(C2SCC(=O)N2NS(=O)(=O)c2cccc(C(=O)O)c2)cc1 (stereo not given) , field TGI: > 100 µM

Record CC1(C)C(CC(=O)O)CCCC1CC(=O)O (stereo not given) , field TGI: > 100 µM

Record `CN(/N=C/C=N/N(C)C1=NCCN1)C1=NCCN1` , field TGI: > 100 µM

----------
Test system: SK-OV-3 ovarian
method_notes: NCI tumour cell line growth inhibition, 48 h
A collection of compounds and their measured TGI
Give a bare numeral; the unit µM is implied.

> print(dat)
                              line.notation  measurement.target  numeric.readout
1  C[C@@H]1CC[C@@]2(C)[C@H](C)/C(=C\COC(=O)/C=C/c3ccc(O)c(O)c3)CC[C@@]12C     SK-OV-3 ovarian             26.4

Record `COC(=O)[C@]12CC[C@@H](C)[C@H](C)[C@@H]1C1=CC[C@@H]3[C@@](C)(CC#N)C4=C(C[C@@]3(C)[C@]1(C)CC2)OC[C@]4(C)C=O` , field TGI: 62.6

----------
Test system: SNB-19 CNS
method_notes: NCI tumour cell line growth inhibition, 48 h; in the data active = GI50 below about 0.43 µM; inactive = the rest
Just give me one of these, please: 1 (yes) = active, 0 (no) = inactive

These recorded examples may help you get a feel for the data.
> print(dat)
                                   compound  class.name
1  O=C1OCC2=C1C(c1cccc(Cl)c1)c1cc3c(cc1N2CCO)CCC3 (stereo not given)     1 (yes)
2  COCCn1c2c([n+](Cc3cnccn3)c1C)C(=O)c1ccccc1C2=O     1 (yes)
3     Fc1ccc(Nc2nc3nonc3nc2Nc2ccc(I)cc2)cc1     1 (yes)
4       CC(=O)Nc1cc2c3c(cccc3c1)-c1ccccc1-2      0 (no)

## Input Test call, this compound: `COc1c(B(O)O)cccc1-c1nc2c(F)cc3n[nH]c(C)c3c2c2c1CCCC2`
## Output 0 (no)

## Input Test call, this compound: `COc1cc(N2CCC(N)CC2)ccc1Nc1ncc(Cl)c(-c2c[nH]c3ccccc23)n1`
## Output 0 (no)

## Input Test call, this compound: `CC(=O)ON=C1C=CC(=C(C#N)c2ccccc2)C=C1`
## Output 0 (no)

## Input Test call, this compound: `O=C(/C=C/C=C/c1ccc2c(c1)OCO2)N/N=C\c1ccc(O)cc1O`
## Output 0 (no)

## Input Test call, this compound: `Nc1ncnc2c1ccn2-c1cccc(NC(=O)c2ccc(N3CCOCC3)c(C(F)(F)F)c2)c1`
## Output 0 (no)

## Input Test call, this compound: `COc1cc(N(CCCl)CCCl)ccc1/C=N\NC(=O)c1cccnc1`
## Output 0 (no)

----------
Tested on: NCI-H522 lung
method_notes: NCI tumour cell line growth inhibition, 48 h; in the data active means GI50 below about 0.43 µM; inactive means the rest
Just give me one of these, please: yes = active, no = inactive

> print(dat)
                                   compound  class.name
1  COCCn1c2c([n+](Cc3cnccn3)c1C)C(=O)c1ccccc1C2=O         yes
2  Cc1c(C(=O)c2ccccc2)[n+](=O)c2cc(F)c(F)cc2n1[O-]          no
3  COC(=O)[C@]12CC[C@@H](C)[C@H](C)[C@@H]1C1=CC[C@@H]3[C@@](C)(CC#N)C4=C(C[C@@]3(C)[C@]1(C)CC2)OC[C@]4(C)C=O          no
4  CN(C)C1CN(C(=O)c2cc(-c3ccc4ncnc(N5CCc6cc(F)c(Cl)cc65)c4c3)cnc2N)C1          no

## Input Test call, this compound: Cc1cc(C)c2c(c1)N(C)c1ncnc(-n3cnc4cc(C)ccc43)c1CC2C (stereo not given)
## Output no

----------
A collection of compounds and their measured log10 TGI
System: MDA-MB-231 breast
method_notes: NCI tumour cell line growth inhibition, 48 h
Log scale reminder: TGI in µM, then log10 taken.

compound	log10 TGI
CCCCCCCCCCCCCCCCCC[S+](C)CC (centres undefined)	0.58

The value of log10 TGI recorded for `CN(C)c1ccc(/C=c2/c3cc(O)ccc3n3c2cc(-c2ccccc2)[n+]3C)cc1` when tested on MDA-MB-231 breast reads 0.45

The value of log10 TGI recorded for COc1cc(C(c2ccc3c(c2)OCO3)C2SCCCS2)cc(OC)c1OC (centres undefined) when tested on MDA-MB-231 breast reads 0.79

The value of log10 TGI recorded for `O=C1OC(c2ccccc2Br)=N/C1=C/c1ccccc1` when tested on MDA-MB-231 breast reads 1.95

The value of log10 TGI recorded for `CC(=O)Nc1cc2c3c(cccc3c1)-c1ccccc1-2` when tested on MDA-MB-231 breast reads 1.41

The value of log10 TGI recorded for NC1NCCC(=O)N1CCc1c[nH]c2ccccc12 (centres undefined) when tested on MDA-MB-231 breast reads 1.54

The value of log10 TGI recorded for `CCCCCCCCCCCCCCCCCCOc1ccccc1COP(=O)(O)OOCC[N+](C)(C)C` when tested on MDA-MB-231 breast reads 0.35

The value of log10 TGI recorded for `C[C@@H]1CC[C@@]2(C)[C@H](C)/C(=C\COC(=O)/C=C/c3ccc(O)c(O)c3)CC[C@@]12C` when tested on MDA-MB-231 breast reads 1.31

The value of log10 TGI recorded for `c1ccc2c(c1)-c1ccccc1C2NC1=NCCO1` when tested on MDA-MB-231 breast reads 1.75

The value of log10 TGI recorded for `C[C@]12CC[C@H]3[C@@H](CC[C@]4(O)C[C@@H](O[C@@H]5O[C@H](CO)[C@@H](O[C@@H]6OC[C@@H](O)[C@H](O)[C@H]6O)[C@H](O)[C@H]5O)CC[C@]34C=O)[C@@]1(O)CC[C@@H]2C1=CC(=O)OC1` when tested on MDA-MB-231 breast reads 1.34

The value of log10 TGI recorded for CC(=O)OCC1OC(O[C@H]2C=C[C@@H](C(=O)OCc3ccccc3)n3c(=O)n(-c4ccccc4)c(=O)n32)C(OC(C)=O)C(OC(C)=O)C1OC(C)=O (some centres undefined) when tested on MDA-MB-231 breast reads 0.61

The value of log10 TGI recorded for `O=C(/C=C/C=C/c1ccc2c(c1)OCO2)N/N=C\c1ccc(O)cc1O` when tested on MDA-MB-231 breast reads 1.29

The value of log10 TGI recorded for `OC(Cc1cc(CC(O)(C(F)(F)F)C(F)(F)F)nc(CC(O)(C(F)(F)F)C(F)(F)F)c1)(C(F)(F)F)C(F)(F)F` when tested on MDA-MB-231 breast reads 0.57

The value of log10 TGI recorded for `Cc1cc(-c2cc(OC(=O)c3ccccc3)ccc2Cl)cc2nnc(Nc3ccc(OCCN4CCCC4)cc3)nc12` when tested on MDA-MB-231 breast reads 0.36

The value of log10 TGI recorded for `O=C1N[C@H](C(=O)O)[C@@H](c2ccc(OCc3ccccc3)cc2)O1` when tested on MDA-MB-231 breast reads 1.71

The value of log10 TGI recorded for `COc1cc(OC)c(/C=N\Nc2nc3ccccc3c(=O)n2-c2ccccc2)c(OC)c1` when tested on MDA-MB-231 breast reads 1.82
